assay: protein stability index of a GFP-peptide fusion (GPS, HEK-293T) (PSI 1-6); higher = more stable; conditions: treatment: DMSO; c terminus: a fixed tail appended;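 also: 24-mer peptide tiles fused after GFP, lentivirally expressed, FACS-sorted into six equal bins by GFP/DsRed ratio, decoded by Illumina sequencing, PSI is the read-weighted mean bin number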
quantity.kind: protein stability index

INSERT INTO assay_data (residue_codes, quantity_kind, readout_value) VALUES
  ('RNGLHLPEQVQNEIKSMKKRMSEL [NLN]', 'protein stability index', 4.11),
  ('SSIECYDPIIDSWEVVTSMGTQRC [KLHL12]', 'protein stability index', 2.95),
  ('LIVGRIAIGVSISLSSIATCVYIA [SLC2A12]', 'protein stability index', 3.09),
  ('GRTHSACDALRTLAEARRLFPGRV [RSAD1]', 'protein stability index', 2.99),
  ('SSSSECLEDSTMGSVADTVARVLR [PLK2]', 'protein stability index', 4.08),
  ('STVGKLCRLINEDVNEQVMQVLGP [CEP70]', 'protein stability index', 3.08);

Provenance of the data: the supplement of paper PMC10567573
